Reference source for all entries: ChEMBL document CHEMBL1201862

# System: SNB-19
# ASSAY REMARKS: NCI tumour cell line growth inhibition, 48 h
Activity calls are given as the source filed them. Cut-off read from the data, not from the text of the source: active = GI50 up to about 1.1 µM and inactive = higher.
Outcome codes: TRUE for active, FALSE for inactive

MOLECULE	ASSIGNED LABEL
CCOC(=O)CCC1(CCC(=O)OCC)CCCCCCCCC(CCC(=O)OCC)(CCC(=O)OCC)C(=O)C1=O	FALSE
CC(=O)Oc1cccc2c1C(=O)C(Br)(Br)CCC2	FALSE
O=c1cc2oc3ccc4ccccc4c3cc-2c(=O)[nH]1	FALSE
CN(C)c1ccc(/C=C(\NC(=O)c2ccccc2)C(=O)Nc2ccccc2C(=O)NN2C(=O)CSC2c2ccc(N(C)C)cc2)cc1 (stereo not given)	FALSE
CC(C)C1=C(O)C(=O)C2=C(C1=O)C(O)CC1C(C)(C)CCCC21C (stereo not given)	FALSE
O=C1COC(c2ccccc2O)=NN1CCCN1CCCC1	FALSE
Cc1cc(O)c2c(c1O)C(=O)C13C(=C(O)C4C(O)C1C1C(O)C3C(O)=C3C(=O)c5c(O)cc(C)c(O)c5C(=O)C341)C2=O (stereo not given)	TRUE
COc1ccccc1/C=N/N=C(\N)NO	FALSE
c1ccc(OCc2nnc(CCCCCCCCc3nnc(COc4ccccc4)o3)o2)cc1	FALSE
COc1cc(C2c3cc4c(cc3OC(NNC(N)=S)C2C)OCO4)cc(OC)c1OC (stereo not given)	TRUE
